# measured-target: human TLR7 (Homo sapiens, UniProt Q9NYK1)
# Sequence (Q9NYK1 27-1049): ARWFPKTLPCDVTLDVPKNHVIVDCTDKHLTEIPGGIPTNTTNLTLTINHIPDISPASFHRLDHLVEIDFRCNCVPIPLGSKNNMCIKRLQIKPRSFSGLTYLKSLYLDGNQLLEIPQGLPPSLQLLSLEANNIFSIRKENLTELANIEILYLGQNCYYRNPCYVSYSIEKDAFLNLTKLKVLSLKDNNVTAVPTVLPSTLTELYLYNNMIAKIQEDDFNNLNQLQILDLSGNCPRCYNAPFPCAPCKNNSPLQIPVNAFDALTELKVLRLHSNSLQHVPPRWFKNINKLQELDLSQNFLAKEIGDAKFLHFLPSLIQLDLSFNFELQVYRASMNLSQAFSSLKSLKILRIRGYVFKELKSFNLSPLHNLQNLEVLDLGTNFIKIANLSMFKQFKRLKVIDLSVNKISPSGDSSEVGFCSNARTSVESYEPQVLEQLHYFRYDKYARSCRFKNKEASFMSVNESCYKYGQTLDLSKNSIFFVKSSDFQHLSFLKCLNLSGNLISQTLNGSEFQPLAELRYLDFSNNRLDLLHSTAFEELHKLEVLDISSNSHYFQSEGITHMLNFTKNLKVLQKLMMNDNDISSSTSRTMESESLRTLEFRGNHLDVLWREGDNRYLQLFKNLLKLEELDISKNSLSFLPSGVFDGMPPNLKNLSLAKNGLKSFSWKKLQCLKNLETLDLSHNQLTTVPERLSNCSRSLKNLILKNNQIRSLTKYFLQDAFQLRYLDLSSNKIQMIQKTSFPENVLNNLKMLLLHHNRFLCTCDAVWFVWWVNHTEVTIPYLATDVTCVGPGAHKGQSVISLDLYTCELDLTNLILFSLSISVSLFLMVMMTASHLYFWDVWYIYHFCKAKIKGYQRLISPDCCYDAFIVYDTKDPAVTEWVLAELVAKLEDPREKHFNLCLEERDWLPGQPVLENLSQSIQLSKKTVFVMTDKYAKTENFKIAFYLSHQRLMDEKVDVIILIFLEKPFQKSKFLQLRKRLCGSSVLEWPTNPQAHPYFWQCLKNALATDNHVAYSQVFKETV
# test-name: HEK293-Blue-hTLR-7 cells assay
# settings: HEK293-Blue-hTLR7 cells, R848 stimulation, 20 hrs, SEAP reporter; read-out: HEK/hTLR7 IC50
quantity-measured: log10(IC50) (log10 of the value in nM)
Heads up: the numbers are on a log10 scale; they represent IC50 in nM.

Here is how some compounds turned out for log10(IC50).
[
  {
    "compound": "[2H]c1ccc2c(N3C[C@@H]4CN(Cc5ccc(N[C@H]6CNC[C@H]6F)nc5C)CCN4[C@H](C)C3)ccc(C#N)c2n1 [Example 82]",
    "reported-result": 1.08
  },
  {
    "compound": "CO[C@@H]1CN(c2ccc(CCN3CCN4[C@@H](C3)CN(c3ccc(C#N)c5ncccc35)C[C@H]4C)nc2)C[C@H]1N [Example 13]",
    "reported-result": 1.41
  },
  {
    "compound": "[2H]c1ccc2c(N3C[C@@H]4CN(Cc5ccc6c(c5)CNCC6)CCN4[C@H](C)C3)ccc(C#N)c2n1 [Example 61]",
    "reported-result": 1.20
  }
]

Report log10(IC50) for each item below.
1. C[C@@H]1CN(c2ccc(C#N)c3ncccc23)C[C@@H]2CN(CCc3ccc(N4C[C@H]5NCCO[C@@H]5C4)nc3)CCN21 [Example 124]
2. Cc1cc(N2CCN3[C@@H](C2)CN(c2ccc(C#N)c4ncccc24)C[C@H]3C)nc(N2CC(C)(N)C2)n1 [Example 55]
3. [2H]c1ccc2c(N3C[C@@H]4CN(Cc5nc(N6CCNCC6)ccc5C)CCN4[C@H](C)C3)ccc(C#N)c2n1 [Example 88]
4. [2H]c1ccc2c(N3C[C@@H]4CN(Cc5ccc(N6CCNCC6)nc5)CCN4[C@H](C)C3)ccc(C#N)c2n1 [Example 78]
5. C[C@@H]1CN(c2ccc(C#N)c3ncccc23)C[C@@H]2CN(c3ccnc(N4CCNCC4)n3)CCN21 [Example 33]

[1.15, 1.18, 1.60, 1.54, 1.00]

====

Measurement record for human TLR8 (Homo sapiens, UniProt Q9NR97); quantity recorded: IC50.
Numbers only, in µM.

Report IC50 for every entry below.
1. [2H]c1ccc2c(N3C[C@@H]4CN(CCc5ccc(N6C[C@H]7NCCO[C@@H]7C6)nc5)CCN4[C@H](C)C3)ccc(C#N)c2n1 [Example 77]
2. [2H]c1ccc2c(N3C[C@@H]4CN(c5ncc(C(=O)N6CC7(CN(C)C7)C6)cc5C)CCN4[C@@H](C)C3)ccc(C#N)c2n1 [Example 103]
3. Cc1cc(N2CCN3[C@@H](C2)CN(c2ccc(C#N)c4ncccc24)C[C@H]3C)nc(N2CC(C)(N)C2)n1 [Example 55]

1. 0.024
2. 0.004
3. 0.04

====

# measured-target: human TLR8 (Homo sapiens)
# Sequence (Q9NR97 27-1041): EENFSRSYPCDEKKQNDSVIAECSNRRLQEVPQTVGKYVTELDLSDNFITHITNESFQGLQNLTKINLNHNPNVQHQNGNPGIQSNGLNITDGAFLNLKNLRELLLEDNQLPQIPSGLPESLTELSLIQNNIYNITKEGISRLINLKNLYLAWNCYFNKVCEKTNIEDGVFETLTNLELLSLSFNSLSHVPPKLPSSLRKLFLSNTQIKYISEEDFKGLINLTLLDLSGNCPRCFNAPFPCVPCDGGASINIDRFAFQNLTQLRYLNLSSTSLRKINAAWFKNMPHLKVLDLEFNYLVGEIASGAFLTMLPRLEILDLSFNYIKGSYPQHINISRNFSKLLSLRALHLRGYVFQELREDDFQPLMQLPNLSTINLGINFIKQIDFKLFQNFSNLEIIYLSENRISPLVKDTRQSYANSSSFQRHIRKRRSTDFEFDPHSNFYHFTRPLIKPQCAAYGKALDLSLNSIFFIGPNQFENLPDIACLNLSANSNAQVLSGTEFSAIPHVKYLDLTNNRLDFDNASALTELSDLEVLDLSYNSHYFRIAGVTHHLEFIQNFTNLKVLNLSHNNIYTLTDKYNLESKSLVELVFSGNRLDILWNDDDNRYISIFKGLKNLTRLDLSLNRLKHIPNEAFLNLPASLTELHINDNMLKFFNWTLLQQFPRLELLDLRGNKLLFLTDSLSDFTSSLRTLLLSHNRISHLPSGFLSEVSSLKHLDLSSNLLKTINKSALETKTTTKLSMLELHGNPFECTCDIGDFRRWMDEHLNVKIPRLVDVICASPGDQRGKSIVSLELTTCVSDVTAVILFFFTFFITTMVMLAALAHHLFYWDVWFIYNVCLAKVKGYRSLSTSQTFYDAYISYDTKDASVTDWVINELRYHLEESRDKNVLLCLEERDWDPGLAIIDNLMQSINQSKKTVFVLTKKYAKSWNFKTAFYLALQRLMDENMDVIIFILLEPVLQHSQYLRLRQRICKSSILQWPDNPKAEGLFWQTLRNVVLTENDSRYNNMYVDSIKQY
Could you please report measured IC50 for the items listed next?
Answers are plain numbers, in nM.

Example entries and their recorded answers appear below.
[
  {
    "molecule": "C[C@@H]1CN(c2ccc(C#N)c3ncccc23)C[C@@H]2CN(CCc3ccc(N4CC(C)(N)C4)nc3)CCN21 [Example 65]",
    "uom": "nM",
    "IC50": 28
  },
  {
    "molecule": "[2H]c1ccc2c(N3C[C@@H]4CN(CCc5ccc(N6CC7(CN(C)C7)C6)nc5)CCN4[C@H](C)C3)ccc(C#N)c2n1 [Example 64]",
    "uom": "nM",
    "IC50": 32
  }
]

Request the reported IC50 associated with C[C@@H]1CN(c2ccc(C#N)c3ncccc23)C[C@@H]2CN(Cc3ccnc(N4CCNCC4)c3)CCN21 (relative stereo) [Example 3]
12

====

# measured-target: hERG channel (Homo sapiens, UniProt Q12809)
# Construct: expressed in transfected cells; host or cells: CHO (Chinese hamster ovary), CHOhERG
# Sequence (Q12809 whole entry): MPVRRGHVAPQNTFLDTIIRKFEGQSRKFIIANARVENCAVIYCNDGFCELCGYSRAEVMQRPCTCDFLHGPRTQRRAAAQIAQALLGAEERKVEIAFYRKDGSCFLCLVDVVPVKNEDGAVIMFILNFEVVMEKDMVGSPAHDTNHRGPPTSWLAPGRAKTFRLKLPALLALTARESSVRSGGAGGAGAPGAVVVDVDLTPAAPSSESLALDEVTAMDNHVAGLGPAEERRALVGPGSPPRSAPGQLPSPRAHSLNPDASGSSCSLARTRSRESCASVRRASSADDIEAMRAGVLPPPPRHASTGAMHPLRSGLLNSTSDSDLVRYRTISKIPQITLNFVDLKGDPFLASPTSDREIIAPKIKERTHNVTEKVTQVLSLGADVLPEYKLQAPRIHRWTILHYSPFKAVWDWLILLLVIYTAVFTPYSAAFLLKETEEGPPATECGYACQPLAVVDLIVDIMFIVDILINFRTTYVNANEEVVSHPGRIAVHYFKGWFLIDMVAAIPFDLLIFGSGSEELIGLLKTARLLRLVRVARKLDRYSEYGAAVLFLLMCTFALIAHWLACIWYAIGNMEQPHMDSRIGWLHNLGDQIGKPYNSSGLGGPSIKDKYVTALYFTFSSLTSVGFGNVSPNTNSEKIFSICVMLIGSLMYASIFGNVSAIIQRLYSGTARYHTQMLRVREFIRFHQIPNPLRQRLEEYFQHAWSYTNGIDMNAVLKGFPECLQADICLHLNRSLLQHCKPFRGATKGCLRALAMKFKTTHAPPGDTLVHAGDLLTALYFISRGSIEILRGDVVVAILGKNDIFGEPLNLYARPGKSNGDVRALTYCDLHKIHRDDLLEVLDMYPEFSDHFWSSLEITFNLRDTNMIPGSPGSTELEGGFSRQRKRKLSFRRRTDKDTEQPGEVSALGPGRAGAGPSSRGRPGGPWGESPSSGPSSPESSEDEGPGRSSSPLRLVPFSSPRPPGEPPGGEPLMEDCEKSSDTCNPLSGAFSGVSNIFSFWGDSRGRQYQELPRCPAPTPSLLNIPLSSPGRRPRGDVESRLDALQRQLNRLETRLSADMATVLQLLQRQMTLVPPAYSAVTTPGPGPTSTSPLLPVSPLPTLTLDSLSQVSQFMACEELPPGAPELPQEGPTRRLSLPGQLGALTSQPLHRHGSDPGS
# test-name: hERG channel inhibition assay (patch-clamp, CHOhERG cells)
# Assay type: cell-based
# settings: human, CHO cells stably expressing hERG (CHOhERG); CHOhERG cells, whole-cell patch-clamp
quantity-measured: IC20

[
  {
    "molecule": "[2H]c1ccc2c(N3C[C@@H]4CN(Cc5ccc(N6CC(C)(N)C6)nc5C)CCN4[C@H](C)C3)ccc(C#N)c2n1",
    "IC20": "> 10 µM"
  },
  {
    "molecule": "C[C@@H]1CN(c2ccc(C#N)c3ncccc23)C[C@@H]2CN(Cc3ccc4c(c3)CNCC4)CCN21 (relative stereo) [Example 1]",
    "IC20": "> 10 µM"
  }
]

Consider now this further molecule.
Recorded IC20 for CO[C@@H]1CN(c2nccc(N3CCN4[C@@H](C3)CN(c3ccc(C#N)c5ncccc35)C[C@H]4C)n2)C[C@H]1N , please?
5.6 µM

====

# measured-target: hERG channel (Homo sapiens)
# Construct: expressed in transfected cells; host or cells: CHO (Chinese hamster ovary), CHOhERG
# test-name: hERG channel inhibition assay (patch-clamp, CHOhERG cells)
# Type: cell-based
# settings: human, CHO cells stably expressing hERG (CHOhERG); CHOhERG cells, whole-cell patch-clamp
quantity-measured: IC20

// solved cases for IC20 follow
[
  {
    "molecule": "C[C@@H]1CN(c2ccc(C#N)c3ncccc23)C[C@@H]2CN(c3cc(N4CCNCC4)ccn3)CCN21 [Example 34]",
    "measured-target": "hERG channel (Homo sapiens)",
    "reported-result": "4.74 µM"
  },
  {
    "molecule": "[2H]c1ccc2c(N3C[C@@H]4CN(c5ccc(CCN6C[C@H](OC)[C@@H](N)C6)cn5)CCN4[C@H](C)C3)ccc(C#N)c2n1 [Example 109]",
    "measured-target": "hERG channel (Homo sapiens)",
    "reported-result": "> 10 µM"
  },
  {
    "molecule": "[2H]c1ccc2c(N3C[C@@H]4CN(Cc5ccc(N6CC7CNCC(C6)O7)nc5C)CCN4[C@H](C)C3)ccc(C#N)c2n1 [Example 83]",
    "measured-target": "hERG channel (Homo sapiens)",
    "reported-result": "> 10 µM"
  },
  {
    "molecule": "[2H]c1ccc2c(N3C[C@@H]4CN(c5ccc([C@@H]6CNCCO6)cc5)CCN4[C@@H](C)C3)ccc(C#N)c2n1 [Example 106]",
    "measured-target": "hERG channel (Homo sapiens)",
    "reported-result": "> 10 µM"
  },
  {
    "molecule": "C[C@@H]1CN(c2ccc(C#N)c3ncccc23)C[C@@H]2CN(CCc3ccc(N4C[C@@H](N)[C@@H](F)C4)nc3)CCN21 [Example 17]",
    "measured-target": "hERG channel (Homo sapiens)",
    "reported-result": "> 10 µM"
  }
]

// switching to the query molecule
Given the molecule CO[C@@H]1CN(c2nc(C)cc(N3CCN4[C@@H](C3)CN(c3ccc(C#N)c5ncccc35)C[C@H]4C)n2)C[C@H]1N [Example 45] , what is its reported IC20?
> 10 µM

The values you see were collected from patent US20220340597A1.
